Molecular target: daf-19 (F33H1.1) (Caenorhabditis elegans) (UniProt Q09555)
Sequence: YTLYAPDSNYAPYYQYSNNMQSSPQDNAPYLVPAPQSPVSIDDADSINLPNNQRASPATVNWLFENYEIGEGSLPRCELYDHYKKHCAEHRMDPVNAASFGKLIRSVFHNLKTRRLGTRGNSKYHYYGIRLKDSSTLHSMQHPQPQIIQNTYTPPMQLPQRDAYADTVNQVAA
PROPERTY NAME: binding signal (PBM E-score (-0.5 to 0.5))

- ATGGCAAC (double strand) [8-mer ATGGCAAC]: 0.468
- GGTTGCTA (double strand) [8-mer GGTTGCTA]: 0.493
- GTAACTAA (double strand) [8-mer GTAACTAA]: 0.465
- CTAGCAAC (double strand) [8-mer CTAGCAAC]: 0.484
- GTAGCAAC (double strand) [8-mer GTAGCAAC]: 0.46
- CGTTGCTA (double strand) [8-mer CGTTGCTA]: 0.489
- TAGCAACA (double strand) [8-mer TAGCAACA]: 0.474
- GTTGCTAA (double strand) [8-mer GTTGCTAA]: 0.487
- ATAGCAAC (double strand) [8-mer ATAGCAAC]: 0.489

----------
Documented binding signal (PBM E-score (-0.5 to 0.5)) across a set of sequences
Molecular target: tbx-38 (C24H11.3) (Caenorhabditis elegans) (UniProt Q9XVD5)
Sequence: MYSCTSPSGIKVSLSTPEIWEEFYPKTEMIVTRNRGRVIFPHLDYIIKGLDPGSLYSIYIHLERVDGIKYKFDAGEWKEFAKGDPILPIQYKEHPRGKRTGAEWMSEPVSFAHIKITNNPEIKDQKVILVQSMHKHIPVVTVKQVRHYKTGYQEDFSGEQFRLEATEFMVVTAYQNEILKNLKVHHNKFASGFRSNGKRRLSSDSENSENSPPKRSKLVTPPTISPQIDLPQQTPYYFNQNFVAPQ
PROPERTY NAME: binding signal (PBM E-score (-0.5 to 0.5))

- ATTCGCAC (double strand) [8-mer ATTCGCAC]: 0.489
- GGTGCGAA (double strand) [8-mer GGTGCGAA]: 0.494
- GGTGTTAA (double strand) [8-mer GGTGTTAA]: 0.488
- GTGTGAAC (double strand) [8-mer GTGTGAAC]: 0.492

----------
Molecular target: ztf-27 (T09F3.1) (Caenorhabditis elegans)
Sequence: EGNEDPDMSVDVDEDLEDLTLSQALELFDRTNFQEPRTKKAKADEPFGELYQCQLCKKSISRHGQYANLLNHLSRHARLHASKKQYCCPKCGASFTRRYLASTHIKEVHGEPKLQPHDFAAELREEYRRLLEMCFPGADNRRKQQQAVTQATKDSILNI
PROPERTY NAME: binding signal (PBM E-score (-0.5 to 0.5))

- ACACCAAT (double strand) [8-mer ACACCAAT]: 0.478
- GTGCACCA (double strand) [8-mer GTGCACCA]: 0.484
- ACACCATA (double strand) [8-mer ACACCATA]: 0.479
- TACACCCA (double strand) [8-mer TACACCCA]: 0.477
- TGCGCCAA (double strand) [8-mer TGCGCCAA]: 0.478
- TGCACCAA (double strand) [8-mer TGCACCAA]: 0.488
- TGGCGCCA (double strand) [8-mer TGGCGCCA]: 0.491
- TGGTGCAA (double strand) [8-mer TGGTGCAA]: 0.483
- TACACCAA (double strand) [8-mer TACACCAA]: 0.483
- ATGGTGCA (double strand) [8-mer ATGGTGCA]: 0.487
- ATGGTGTG (double strand) [8-mer ATGGTGTG]: 0.477
- ATGGTGTA (double strand) [8-mer ATGGTGTA]: 0.485
- TGGTGTAA (double strand) [8-mer TGGTGTAA]: 0.48
- AATGGTGT (double strand) [8-mer AATGGTGT]: 0.477
- TACGCCAA (double strand) [8-mer TACGCCAA]: 0.48

----------
Documented binding signal (PBM E-score (-0.5 to 0.5)) across a set of sequences
Biological target: eyg-1 (Y53C12C.1) (Caenorhabditis elegans) (UniProt O01996)
Sequence: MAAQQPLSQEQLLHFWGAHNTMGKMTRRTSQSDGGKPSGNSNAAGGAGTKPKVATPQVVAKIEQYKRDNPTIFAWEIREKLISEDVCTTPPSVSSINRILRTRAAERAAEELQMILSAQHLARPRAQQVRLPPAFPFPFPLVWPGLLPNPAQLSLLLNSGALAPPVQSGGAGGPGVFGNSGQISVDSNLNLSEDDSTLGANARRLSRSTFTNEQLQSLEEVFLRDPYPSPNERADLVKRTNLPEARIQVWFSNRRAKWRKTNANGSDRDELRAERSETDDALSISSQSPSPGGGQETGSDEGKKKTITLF
PROPERTY NAME: binding signal (PBM E-score (-0.5 to 0.5))

* TCAATTAA (double strand) [8-mer TCAATTAA] | 0.48
* ATTAATTG (double strand) [8-mer ATTAATTG] | 0.478
* CCAATTAA (double strand) [8-mer CCAATTAA] | 0.479
* ATCAATTA (double strand) [8-mer ATCAATTA] | 0.475
* GTTAATTA (double strand) [8-mer GTTAATTA] | 0.481
* GATAATTA (double strand) [8-mer GATAATTA] | 0.48
* CAATTAAC (double strand) [8-mer CAATTAAC] | 0.476
* GTAATTAC (double strand) [8-mer GTAATTAC] | 0.482
* ACTAATTA (double strand) [8-mer ACTAATTA] | 0.477
* CTAATTAA (double strand) [8-mer CTAATTAA] | 0.489
* TTAATTAA (double strand) [8-mer TTAATTAA] | 0.487
* CTAATTAG (double strand) [8-mer CTAATTAG] | 0.473
* AATTAATT (double strand) [8-mer AATTAATT] | 0.489
* CTTAATTA (double strand) [8-mer CTTAATTA] | 0.482
* ATGCGCAT (double strand) [8-mer ATGCGCAT] | 0.475

----------
Target: dmd-6 (F13G11.1) (Caenorhabditis elegans) (UniProt O62159)
Sequence: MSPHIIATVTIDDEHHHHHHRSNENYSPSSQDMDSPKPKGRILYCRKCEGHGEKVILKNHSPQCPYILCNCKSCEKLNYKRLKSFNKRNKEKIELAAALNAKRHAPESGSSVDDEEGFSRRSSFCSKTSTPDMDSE
Documented binding signal (PBM E-score (-0.5 to 0.5)) across a set of sequences
PROPERTY NAME: binding signal (PBM E-score (-0.5 to 0.5))

- AAATGTTC (double strand) [8-mer AAATGTTC]: 0.469
- AAATATTT (double strand) [8-mer AAATATTT]: 0.482
- AAAATATT (double strand) [8-mer AAAATATT]: 0.485
- AAATATAT (double strand) [8-mer AAATATAT]: 0.48
- AAATATTA (double strand) [8-mer AAATATTA]: 0.481
- AAAAGTTA (double strand) [8-mer AAAAGTTA]: 0.486
- AAAATTTA (double strand) [8-mer AAAATTTA]: 0.471
- AAAATTTT (double strand) [8-mer AAAATTTT]: 0.481
- AAAATGTT (double strand) [8-mer AAAATGTT]: 0.475
- AAATTTTA (double strand) [8-mer AAATTTTA]: 0.477
- AAATGTTA (double strand) [8-mer AAATGTTA]: 0.475

----------
Biological target: daf-12 (F11A1.3) (Caenorhabditis elegans)
Sequence: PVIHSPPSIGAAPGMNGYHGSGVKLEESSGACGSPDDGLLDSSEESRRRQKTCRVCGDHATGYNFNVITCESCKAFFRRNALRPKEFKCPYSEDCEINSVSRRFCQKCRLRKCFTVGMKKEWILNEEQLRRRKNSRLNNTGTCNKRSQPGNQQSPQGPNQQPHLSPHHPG
Documented binding signal (PBM E-score (-0.5 to 0.5)) across a set of sequences
PROPERTY NAME: binding signal (PBM E-score (-0.5 to 0.5))

- CAAGTGCA (double strand) [8-mer CAAGTGCA]: 0.493
- TAAGTGCA (double strand) [8-mer TAAGTGCA]: 0.496
- AAGTGCAT (double strand) [8-mer AAGTGCAT]: 0.495
- AAGTGCAG (double strand) [8-mer AAGTGCAG]: 0.492
- AAGTACAC (double strand) [8-mer AAGTACAC]: 0.492
- AAGTGCAC (double strand) [8-mer AAGTGCAC]: 0.498

----------
Documented binding signal (PBM E-score (-0.5 to 0.5)) across a set of sequences
Molecular target: che-1 (C55B7.12) (Caenorhabditis elegans) (UniProt Q966L8)
Sequence: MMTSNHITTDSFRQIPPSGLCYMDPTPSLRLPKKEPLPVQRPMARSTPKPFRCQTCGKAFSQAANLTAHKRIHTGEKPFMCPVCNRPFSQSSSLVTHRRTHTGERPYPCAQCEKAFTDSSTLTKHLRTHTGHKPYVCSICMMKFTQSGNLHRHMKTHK
PROPERTY NAME: binding signal (PBM E-score (-0.5 to 0.5))

• GGAAGCCC (double strand) [8-mer GGAAGCCC] = 0.495
• AGGCTTCC (double strand) [8-mer AGGCTTCC] = 0.491
• GAAGCCCC (double strand) [8-mer GAAGCCCC] = 0.492
• AGGAAGCC (double strand) [8-mer AGGAAGCC] = 0.49
• GGCTTCCC (double strand) [8-mer GGCTTCCC] = 0.497
• AAGAAGCC (double strand) [8-mer AAGAAGCC] = 0.493
• GGAAGCCA (double strand) [8-mer GGAAGCCA] = 0.494
• AGAAGCCC (double strand) [8-mer AGAAGCCC] = 0.491
• ATGAAGCC (double strand) [8-mer ATGAAGCC] = 0.489
• AGAAGCCA (double strand) [8-mer AGAAGCCA] = 0.489
• AAGGCTTC (double strand) [8-mer AAGGCTTC] = 0.494
